# TEST_TARGET: feline FcRn complex (FcRn-α subunit and β-microglobulin), biotin labeled (feline)
# PROTOCOL_SUMMARY: SPR, pH 6
Entries and their Kd

- BINDER: "feline IgG1a S252Y/S434R (antibody, part only; not given: Variable domains, not shown: another chain or arm of the molecule; small tags and cut ends) constant: ASTTAPSVFPLAPSCGTTSGATVALACLVLGYFPEPVTVSWNSGALTSGVHTFPAVLQASGLYSLSSMVTVPSSRWLSDTFTCNVAHPPSNTKVDKTVRKTDHPPGPKPCDCPKCPPPEMLGGPSIFIFPPKPKDTLYISRTPEVTCLVVDLGPDDSDVQITWFVDNTQVYTAKTSPREEQFNSTYRVVSVLPILHQDWLKGKEFKCKVNSKSLPSPIERTISKAKGQPHEPQVYVLPPAQEELSRNKVSVTCLIKSFHPPDIAVEWEITGQPEPENNYRTTPPQLDSDGTYFVYSKLSVDRSHWQRGNTYTCSVSHEALHRHHTQKSLTQSPGK"
  Kd: "4.12 nM"
- BINDER: "feline IgG1a S252E (antibody, part only; not given: variable domains, not shown: another chain or arm of the molecule) constant: ASTTAPSVFPLAPSCGTTSGATVALACLVLGYFPEPVTVSWNSGALTSGVHTFPAVLQASGLYSLSSMVTVPSSRWLSDTFTCNVAHPPSNTKVDKTVRKTDHPPGPKPCDCPKCPPPEMLGGPSIFIFPPKPKDTLEISRTPEVTCLVVDLGPDDSDVQITWFVDNTQVYTAKTSPREEQFNSTYRVVSVLPILHQDWLKGKEFKCKVNSKSLPSPIERTISKAKGQPHEPQVYVLPPAQEELSRNKVSVTCLIKSFHPPDIAVEWEITGQPEPENNYRTTPPQLDSDGTYFVYSKLSVDRSHWQRGNTYTCSVSHEALHSHHTQKSLTQSPGK"
  Kd: "163 nM"
